Cited source: paper PMC8774845

Molecular target: PpADT-Gmut^9
Assay: Inhibition of PDT activity by Phe, mutant enzyme
Assay type: biochemical, Pinus pinaster
Conditions: read-out: IC50 (μM) for Phe; PDT reaction, 1 mM of substrate (Ppa); Ala314→Val, Ala316→Ser, Val317→Ala
MEASURE: IC50 (µM)

SMILES_TEXT: N[C@@H](Cc1ccccc1)C(=O)O
READING: 17.5

====

Target: PpADT-Gmut^16
Assay: Inhibition of PDT activity by Phe, mutant enzyme
Format: biochemical, Pinus pinaster
Conditions: read-out: IC50 (μM) for Phe; PDT reaction, 1 mM of substrate (Ppa); Ala316→Ser, Val317→Ala

SMILES_TEXT: N[C@@H](Cc1ccccc1)C(=O)O
TARGET: PpADT-Gmut^16
IC50, µM: 17.2

====

Target: PpADT-Gmut^1
Test: Inhibition of PDT activity by Phe, chimeric enzyme
Assay type: biochemical, Pinus pinaster
Conditions: read-out: PDT IC50 (μM of Phe), 1 mM of Ppa

SMILES_TEXT: N[C@@H](Cc1ccccc1)C(=O)O
TARGET: PpADT-Gmut^1
IC50 (µM): 390

====

Molecular target: PpADT-G
Assay: Inhibition of ADT activity by Phe, recombinant enzyme
Format: biochemical, Pinus pinaster
Conditions: read-out: ADT IC50 (μM of Phe); ADT activity, 0.1 mM of Agn
MEASURE: IC50 (µM)

COMPOUND: N[C@@H](Cc1ccccc1)C(=O)O [Phe, phenylalanine]
READING: 27.6

====

Target: PpADT-Gmut^13
Assay: Inhibition of PDT activity by Phe, mutant enzyme
Type: biochemical, Pinus pinaster
Conditions: read-out: IC50 (μM) for Phe; PDT reaction, 1 mM of substrate (Ppa); Val317→Ala

SMILES_TEXT: N[C@@H](Cc1ccccc1)C(=O)O
IC50 / µM: 23.6

====

Molecular target: PpADT-Gmut^8
Test: Inhibition of PDT activity by Phe, mutant enzyme
Assay type: biochemical, Pinus pinaster
Conditions: read-out: IC50 (μM) for Phe; PDT reaction, 1 mM of substrate (Ppa); Pro308→Thr, Gly309→Ser

COMPOUND: N[C@@H](Cc1ccccc1)C(=O)O [Phe, phenylalanine]
IC50 [µM]: 445

====

Biological target: PpADT-G
Test: Inhibition of PDT activity by Phe, recombinant enzyme
Type: biochemical, Pinus pinaster
Conditions: read-out: PDT K i (μM of Phe)

MOLECULE: N[C@@H](Cc1ccccc1)C(=O)O [Phe, phenylalanine]
TARGET: PpADT-G
Ki [µM]: 28.1

====

Target: PpADT-Gmut^1
Experiment: Inhibition of ADT activity by Phe, chimeric enzyme
Assay type: biochemical, Pinus pinaster
Conditions: read-out: ADT IC50 (μM of Phe), 0.1 mM of Agn

COMPOUND: N[C@@H](Cc1ccccc1)C(=O)O [Phe, phenylalanine]
IC50: > 100 µM

====

Target: PpADT-Cmut^1
Assay: Inhibition of PDT activity by Phe, chimeric enzyme
Format: biochemical, Pinus pinaster
Conditions: read-out: PDT K i (μM of Phe)

SMILES_TEXT: N[C@@H](Cc1ccccc1)C(=O)O
TARGET: PpADT-Cmut^1
UNIT_DESCRIPTOR: µM
Ki: 170

====

Molecular target: PpADT-Gmut^11
Experiment: Inhibition of PDT activity by Phe, mutant enzyme
Assay type: biochemical, Pinus pinaster
Conditions: read-out: IC50 (μM) for Phe; PDT reaction, 1 mM of substrate (Ppa); Ala314→Val
MEASURE: IC50 (µM)

SMILES_TEXT: N[C@@H](Cc1ccccc1)C(=O)O
READING: 14.6

====

Biological target: PpADT-Gmut^62
Assay: Inhibition of PDT activity by Phe, mutant enzyme
Type: biochemical, Pinus pinaster
Conditions: read-out: IC50 (μM) for Phe; PDT reaction, 1 mM of substrate (Ppa); Thr303→Ala, Leu304→His
MEASURE: IC50 (µM)

SMILES_TEXT: N[C@@H](Cc1ccccc1)C(=O)O
MEASURE: IC50
READING: 334
